measurement.protocol: In vitro determination of relaxivity (T1, 7.0 T)
Assay type: physicochemical
condition.notes: in water, Gd 0.01-0.08 mM
measured.property: R1 (spin lattice T1 relaxivity)

Enquiry: If you can, please state the reported R1 (spin lattice T1 relaxivity) value of O=C([O-])CN(CCN(CC(=O)[O-])CC(=O)O)CCN(CC(=O)[O-])CC(=O)O.[Gd+3] [Gd-DTPA, reference compound] .
Return: 3.61 mM⁻¹ s⁻¹
